pKd values, listed per item
Target: T1, LIN7B, Q9HAP6
T1 sequence (Q9HAP6 88-185, limits assumed, looked up): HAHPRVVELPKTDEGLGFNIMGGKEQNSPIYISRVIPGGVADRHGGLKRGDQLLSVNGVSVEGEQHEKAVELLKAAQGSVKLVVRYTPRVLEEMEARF
Experiment: holdup assay
Design: key: below the threshold = too weak to quantify, mostly under pKd 3.1 to 4
Settings: plain residues with an end cap or a label only (N-terminal biotin on a linker: ado-ado)

{"BINDER": "RQKEVRESKC [SCN8A, Q9UQD0]", "pKd": 3.78}
{"BINDER": "PTPDLPQTRV [KLHDC7A, Q5VTJ3]", "pKd": 3.89}
{"BINDER": "DRIQSCLSDA [SBF1, O95248]", "pKd": 3.72}
{"BINDER": "LPAVCYDIDI [PTTG2, Q9NZH5]", "pKd": 3.53}
{"BINDER": "KRPEMTSSSV [MUC3A, MUC3B, Q02505;Q9H195]", "pKd": 3.68}
{"BINDER": "DFLSTFHIRI [CIB2, O75838]", "pKd": 3.67}
{"BINDER": "SFISKKEWYV [NECTIN1, Q15223]", "pKd": 3.63}
{"BINDER": "TNSRHGETTV [FZD2, Q14332]", "pKd": 3.82}
{"BINDER": "PYSESDDDWC [CACNA1A, O00555]", "pKd": 3.9}
{"BINDER": "IDESKKEWLI [CNTNAP2, Q9UHC6]", "pKd": 3.75}
{"BINDER": "TGLWKHETTV [ADGRA3, Q8IWK6]", "pKd": 4.04}
{"BINDER": "RSSGGDDFWF [KCNV1, Q6PIU1]", "pKd": 3.7}
{"BINDER": "QLSFNTDTLC [ABCA2, Q9BZC7]", "pKd": 3.66}
{"BINDER": "EKCGKEFSEF [PRKACA, P17612]", "pKd": 3.92}
{"BINDER": "EDLEDEWEVI [TECPR2, O15040]", "pKd": 3.74}
{"BINDER": "NNNVVKVDSV [MTNR1A, P48039]", "pKd": 3.7}
